# System name: human CCR8 (human, UniProt P51685 1-355)
# Protocol details: cell-based or functional assay
Property measured: hCCL1 (100 nM) residual response in %, Protocol #2, mAb 10 µg/mL (66.7 nM) (%)

1) anti-CCR8 mAb 2-4 (antibody, V domains shown) VH: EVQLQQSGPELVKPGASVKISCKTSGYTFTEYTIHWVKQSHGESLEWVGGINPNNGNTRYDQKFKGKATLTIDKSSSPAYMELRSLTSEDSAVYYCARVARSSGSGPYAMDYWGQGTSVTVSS VL: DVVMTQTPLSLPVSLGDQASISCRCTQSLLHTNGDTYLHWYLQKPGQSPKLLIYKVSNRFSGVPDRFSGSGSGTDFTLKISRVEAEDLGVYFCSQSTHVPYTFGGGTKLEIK ... 28
2) anti-CCR8 mAb 2-2 (antibody, V domains shown) VH: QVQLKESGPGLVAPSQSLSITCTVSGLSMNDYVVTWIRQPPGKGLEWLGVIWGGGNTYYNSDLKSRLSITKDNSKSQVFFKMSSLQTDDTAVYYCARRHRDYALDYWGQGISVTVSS VL: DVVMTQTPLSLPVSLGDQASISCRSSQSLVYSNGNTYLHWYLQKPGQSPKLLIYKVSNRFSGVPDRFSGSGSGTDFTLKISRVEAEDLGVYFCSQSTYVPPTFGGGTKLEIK ... 97
